Let's look at some binders and their measured % Change Compared to pH 7.4 + Calcium.
# MEASURED TARGET: T1, recombinant, soluble human ASGR-1 (human, UniProt P07306 62-291)
# T1 construct: biotinylated in the binning assay; also called soluble huASGR-1; Soluble ASGR-1 (Amgen)
# T1 sequence: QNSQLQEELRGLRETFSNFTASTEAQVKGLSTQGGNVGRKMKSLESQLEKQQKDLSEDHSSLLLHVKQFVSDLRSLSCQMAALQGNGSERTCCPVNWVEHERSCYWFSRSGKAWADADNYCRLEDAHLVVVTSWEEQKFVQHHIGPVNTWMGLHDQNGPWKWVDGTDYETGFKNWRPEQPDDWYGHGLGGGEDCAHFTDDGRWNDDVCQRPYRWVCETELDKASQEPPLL
# PROCEDURE DETAILS: Octet BLI dissociation, pH 7.4 minus calcium
Numbers only; they are read as %.

Consider the reported % Change Compared to pH 7.4 + Calcium for these binders:
>>> reported("192G8 (antibody, V domains shown, hybridoma mAb) VH: QVQLVESGGGVVQPGRSLRLSCAASGFTFSSYGMHWVRQAPGKGLEWVAVIWYDGSNKNYADSVKGRFTISRDNSKNTLYLQMNSLRAEDTAVYYCARDQGVGYDGLDVWGQGTTVTVSS VL: DIQMTQSPSSLSASVGDRVTITCRTSQGIGNYLAWFQQKPGKAPKSLLYKASSLQSGVPSKFSGSGSGTDFTLTISSLQPEDFATYYCQQYITYPLTFGGGTKVEIK")
-1
>>> reported("172C3 (antibody, V domains shown, hybridoma mAb) VH: QVQLVQSGAEVKKPGASVKVSCKASGYTFRSYYMYWVRQAPGQGLEWVGTINPSGGSTNYAQKFQGRVTMTRDTSTSTLYMELNSLRSEDTAVYYCASGWELNYWGQGTLVTVSS VL: SSELTQDPAVSVALGQTVRITCQGDSLRNYYVSWYQQKPGQAPILVIYTKNSRPSGIPDRFSGSTSGNTASLTITGTQAEDEADYYCNSRDSSGNHVVFGGGTKLTVL")
-9

Consider the record given below.
What measured % Change Compared to pH 7.4 + Calcium goes with 148H10 (antibody, V domains shown, hybridoma mAb) VH: QVQLVESGGGVVQPGRSLRLSCAASGFTFSSYGMHWVRQAPGKGLEWVAVIWYDGSNKYYGDSVKGRFTISRDNSKNTLYLQMNSLRAEDTAVYYCARRYSSSWSGGMDVWGQGTTVTVSS VL: DIVMTQTPLSLSVTPGQPASISCKSSQSLLHSEGKTYLYWYLQKPGQPPQLLIYEVSYRVSGVPDRFSGSGSGTDFTLKISRVEAEDVGVYYCMQSIQLPLTFGGGTKVEIK ?
45
